- TESTED TARGET: Cyclin-dependent kinase 2/cyclin E1 (Homo sapiens, UniProt P24941)
- METHOD: Inhibition of CDK2/cyclin E (unknown origin) expressed in baculovirus infected insect Sf9 cells using histone H1 as substrate in presence of [gamma-33P]ATP
VALUE KIND: pIC50
Quick note: pIC50 values are minus log10 of concentrations in mol/L.

Brc1cnn2c(NCc3cccnc3)cc(-c3ccc(-c4ccccc4)cc3)nc12 = 6.31

The reported pIC50 of the compound NC(=O)c1ccc(-c2ccc(-c3cc(NCc4cccnc4)n4ncc(Br)c4n3)cc2)cc1 was 7.43

# compound CCc1cnn2c(NCc3cccnc3)cc(-c3ccc(-c4ccc(CO)cc4)cc3)nc12 ; its pIC50 = 6.89

The compound identified as CN(C)C(=O)c1ccc(-c2ccc(-c3cc(NCc4cccnc4)n4nccc4n3)cc2)cc1 registered its pIC50 at 5.71

Summary for this compound, NC(=O)c1ccc(-c2ccc(-c3cc(NCc4cccnc4)n4nccc4n3)cc2)cc1 : pIC50 is 5.40

Given item NC(=O)c1ccc(-c2ccc(-c3cc(NCc4cccnc4)n4ncc(Br)c4n3)cc2)c(O)c1 , the value recorded as its pIC50 is 7.82

Lab note: Nc1ccc(-c2ccc(-c3cc(NCc4cccnc4)n4ncc(Br)c4n3)cc2)cc1 gave pIC50 of 6.85

# pIC50 of CN(C)C(=O)c1ccc(-c2ccc(-c3cc(NCc4cccnc4)n4ncc(Br)c4n3)cc2)cc1 = 7.19

The reported pIC50 of the compound NC(=O)c1ccc(-c2ccc(-c3cc(NCc4cccnc4)n4nccc4n3)cc2)cc1O was 5.57

====

- TESTED TARGET: Cyclin-dependent kinase 2/cyclin E1 (Homo sapiens)
- METHOD: Inhibition of CDK2/cyclin E (unknown origin) expressed in baculovirus infected insect Sf9 cells using histone H1 as substrate in presence of [gamma-33P]ATP
Consider the reported IC50 of an entry and match it to a band in lower range (below 50 nM), middle range (50 nM to below 5000 nM), upper range (5000 nM or more)

Before answering, review these 8 worked examples.
N#CCCc1cc(-c2ccc(-c3cc(NCc4cccnc4)n4ncc(Br)c4n3)cc2)ccc1C(N)=O = middle range
CCc1cnn2c(NCc3cccnc3)cc(-c3ccc(-c4ccc(C(N)=O)c(O)c4)cc3)nc12 = lower range
N#CCCc1cc(-c2ccc(-c3cc(NCc4cccnc4)n4nccc4n3)cc2)ccc1C(N)=O = upper range
OCc1ccc(-c2ccc(-c3cc(NCc4cccnc4)n4ncc(Br)c4n3)cc2)cc1 = lower range
CCc1cnn2c(NCc3cccnc3)cc(-c3ccc(-c4ccc(C(N)=O)cc4)cc3)nc12 = lower range
COc1cc(-c2ccc(-c3cc(NCc4cccnc4)n4nccc4n3)cc2)ccc1C(N)=O = upper range
c1ccc(-c2ccc(-c3cc(NCc4cccnc4)n4nccc4n3)cc2)cc1 = upper range
OCc1ccc(-c2ccc(-c3cc(NCc4cccnc4)n4nccc4n3)cc2)cc1 = upper range

Task: Looking at NC(=O)c1ccc(-c2ccc(-c3cc(NCc4cccnc4)n4ncc(Br)c4n3)cc2)cc1O , which class would you pick?
Result: middle range

Task: Exercise: read the entry Oc1ccc(-c2ccc(-c3cc(NCc4cccnc4)n4nccc4n3)cc2)cc1 and state which class it falls under.
Result: middle range

Task: Pick a category. Item: Oc1ccc(-c2ccc(-c3cc(NCc4cccnc4)n4ncc(Br)c4n3)cc2)cc1
Result: middle range
